Values from patent US11306092B2

The following compounds are shown together with reported IC50 values.
Target: human TLR7 (Homo sapiens)
Sequence (Q9NYK1 27-1049): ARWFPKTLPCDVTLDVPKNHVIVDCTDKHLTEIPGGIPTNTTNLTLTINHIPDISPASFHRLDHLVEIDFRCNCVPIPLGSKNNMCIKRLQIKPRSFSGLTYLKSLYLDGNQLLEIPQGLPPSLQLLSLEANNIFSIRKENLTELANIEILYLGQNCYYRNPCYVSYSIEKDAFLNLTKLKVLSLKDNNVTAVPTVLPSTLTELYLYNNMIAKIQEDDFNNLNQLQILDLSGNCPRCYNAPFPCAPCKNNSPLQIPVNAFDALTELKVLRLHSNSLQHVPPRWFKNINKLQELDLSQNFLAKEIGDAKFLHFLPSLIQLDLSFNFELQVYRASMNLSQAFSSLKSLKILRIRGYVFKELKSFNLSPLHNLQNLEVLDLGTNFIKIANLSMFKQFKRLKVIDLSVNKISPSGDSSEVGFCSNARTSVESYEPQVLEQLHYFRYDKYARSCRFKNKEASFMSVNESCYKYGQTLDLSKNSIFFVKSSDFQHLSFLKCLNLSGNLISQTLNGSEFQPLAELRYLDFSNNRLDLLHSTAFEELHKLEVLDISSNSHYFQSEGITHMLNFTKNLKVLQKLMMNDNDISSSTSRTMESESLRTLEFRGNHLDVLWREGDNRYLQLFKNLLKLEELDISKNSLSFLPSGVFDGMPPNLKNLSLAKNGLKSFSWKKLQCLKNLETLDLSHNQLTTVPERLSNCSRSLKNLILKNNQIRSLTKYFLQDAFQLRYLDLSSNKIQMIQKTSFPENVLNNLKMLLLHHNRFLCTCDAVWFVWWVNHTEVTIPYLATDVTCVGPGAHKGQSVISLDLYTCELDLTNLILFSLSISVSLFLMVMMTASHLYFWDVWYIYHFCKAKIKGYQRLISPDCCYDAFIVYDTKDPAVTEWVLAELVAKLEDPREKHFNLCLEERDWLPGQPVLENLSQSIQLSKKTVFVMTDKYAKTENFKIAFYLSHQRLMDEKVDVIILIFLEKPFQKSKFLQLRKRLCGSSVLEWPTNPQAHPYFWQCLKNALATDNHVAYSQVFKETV
Assay: TLR7 inhibition reporter assay (HEK-Blue SEAP reporter)
Settings: HEK-Blue cells overexpressing human TLR7; gardiquimod 7.5 μM; 22 hour incubation
Enter your answer as a number in nM; do not include the unit.

Would you please look over these solved cases?
>>> numeric_readout("COc1ccc(-c2[nH]c3ccc(N4CCC(NC5CC(C)(C)N(C)C(C)(C)C5)CC4)cc3c2C(C)C)cc1OC")
39
>>> numeric_readout("CC(C)c1c(-c2ccnc3[nH]ncc23)[nH]c2ccc(NC(=O)[C@@H]3CCNC3)cc12")
817
>>> numeric_readout("COc1ccc(-c2[nH]c3ccc(N4CCC(N5CCCC5)CC4)cc3c2C(C)C)cc1OC")
130

Now, please, on to the next compound.
Return the recorded IC50 value; entry: `COc1ccc(-c2[nH]c3ccc(NC(=O)[C@H](N)CCC(N)=O)cc3c2C(C)C)cc1OC`
670

---

Biological target: human TLR7 (Homo sapiens, UniProt Q9NYK1)
Sequence (Q9NYK1 27-1049): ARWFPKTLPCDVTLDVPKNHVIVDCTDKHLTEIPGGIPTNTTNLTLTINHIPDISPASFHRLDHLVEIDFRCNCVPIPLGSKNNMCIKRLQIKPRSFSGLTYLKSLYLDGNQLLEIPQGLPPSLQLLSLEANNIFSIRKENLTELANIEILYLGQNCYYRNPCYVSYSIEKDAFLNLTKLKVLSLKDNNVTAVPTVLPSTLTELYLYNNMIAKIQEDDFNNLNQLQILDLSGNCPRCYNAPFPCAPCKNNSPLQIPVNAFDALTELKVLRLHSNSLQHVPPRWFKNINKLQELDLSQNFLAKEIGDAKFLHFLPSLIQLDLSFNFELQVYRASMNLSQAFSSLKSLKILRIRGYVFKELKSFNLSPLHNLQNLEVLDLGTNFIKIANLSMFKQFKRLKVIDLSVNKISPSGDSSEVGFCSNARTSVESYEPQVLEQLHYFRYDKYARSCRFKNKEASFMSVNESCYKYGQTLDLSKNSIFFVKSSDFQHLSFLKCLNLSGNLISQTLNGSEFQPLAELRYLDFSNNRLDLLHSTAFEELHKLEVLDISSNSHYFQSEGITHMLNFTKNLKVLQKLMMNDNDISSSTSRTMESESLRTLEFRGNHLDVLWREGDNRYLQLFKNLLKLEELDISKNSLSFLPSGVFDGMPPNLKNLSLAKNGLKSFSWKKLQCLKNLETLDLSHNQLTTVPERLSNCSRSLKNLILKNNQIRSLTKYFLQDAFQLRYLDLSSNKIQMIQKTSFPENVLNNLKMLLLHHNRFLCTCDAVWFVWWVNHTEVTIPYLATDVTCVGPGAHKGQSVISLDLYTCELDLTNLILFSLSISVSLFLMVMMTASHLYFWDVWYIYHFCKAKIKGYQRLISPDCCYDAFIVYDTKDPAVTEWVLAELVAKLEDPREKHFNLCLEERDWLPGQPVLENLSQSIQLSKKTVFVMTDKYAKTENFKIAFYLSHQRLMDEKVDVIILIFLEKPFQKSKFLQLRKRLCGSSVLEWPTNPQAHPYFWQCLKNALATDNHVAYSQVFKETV
Assay: TLR7 inhibition reporter assay (HEK-Blue SEAP reporter)
Conditions: HEK-Blue cells overexpressing human TLR7; gardiquimod 7.5 μM; 22 hour incubation
RECORDED_METRIC: pIC50
When answering, recall that pIC50 equals minus log10 of the concentration in mol/L, and write that number alone.

Examples with their reported pIC50 follow.
>>> numeric_readout("COc1ccc(-c2[nH]c3ccc(NC4CCC(N5CCN(C(C)=O)CC5)CC4)cc3c2C(C)C)cc1OC (single isomer, unassigned) [Example 44]")
6.43
>>> numeric_readout("COc1ccc(-c2[nH]c3ccc(N4CCC(N(C)C)C4=O)cc3c2C(C)C)cc1OC (stereo not drawn) [Example 4]")
7.17
>>> numeric_readout("COc1ccc(-c2[nH]c3ccc(NC(=O)[C@H](N)CC(N)=O)cc3c2C(C)C)cc1OC")
6.36
>>> numeric_readout("CCc1c(-c2ccc(OC)c(OC)c2)[nH]c2ccc(N3CCC4(CC3)CCN(C(C)C)CC4)cc12")
7.02
>>> numeric_readout("COc1ccc(-c2[nH]c3ccc(NC4CCC(NCCCN(C)C)CC4)cc3c2C(C)C)cc1OC (stereo not drawn) [Example 37]")
6.77

For the molecule `CCNCCOc1ccc(Nc2ccc3[nH]c(-c4ccc(OC)c(OC)c4)c(C(C)C)c3c2)cc1` , report pIC50.
5.85

Give pIC50 for `CCc1c(-c2ccnc(OC)c2)[nH]c2ccc(N3CCN(C4CCN(C(C)C)CC4)CC3)cc12`
7.08

---

target: human TLR8 (Homo sapiens); test: TLR8 inhibition reporter assay (HEK-Blue SEAP reporter); conditions: HEK-Blue cells overexpressing human TLR8; R848 15.9 μM; 22 hour incubation
Sequence (Q9NR97 27-1041): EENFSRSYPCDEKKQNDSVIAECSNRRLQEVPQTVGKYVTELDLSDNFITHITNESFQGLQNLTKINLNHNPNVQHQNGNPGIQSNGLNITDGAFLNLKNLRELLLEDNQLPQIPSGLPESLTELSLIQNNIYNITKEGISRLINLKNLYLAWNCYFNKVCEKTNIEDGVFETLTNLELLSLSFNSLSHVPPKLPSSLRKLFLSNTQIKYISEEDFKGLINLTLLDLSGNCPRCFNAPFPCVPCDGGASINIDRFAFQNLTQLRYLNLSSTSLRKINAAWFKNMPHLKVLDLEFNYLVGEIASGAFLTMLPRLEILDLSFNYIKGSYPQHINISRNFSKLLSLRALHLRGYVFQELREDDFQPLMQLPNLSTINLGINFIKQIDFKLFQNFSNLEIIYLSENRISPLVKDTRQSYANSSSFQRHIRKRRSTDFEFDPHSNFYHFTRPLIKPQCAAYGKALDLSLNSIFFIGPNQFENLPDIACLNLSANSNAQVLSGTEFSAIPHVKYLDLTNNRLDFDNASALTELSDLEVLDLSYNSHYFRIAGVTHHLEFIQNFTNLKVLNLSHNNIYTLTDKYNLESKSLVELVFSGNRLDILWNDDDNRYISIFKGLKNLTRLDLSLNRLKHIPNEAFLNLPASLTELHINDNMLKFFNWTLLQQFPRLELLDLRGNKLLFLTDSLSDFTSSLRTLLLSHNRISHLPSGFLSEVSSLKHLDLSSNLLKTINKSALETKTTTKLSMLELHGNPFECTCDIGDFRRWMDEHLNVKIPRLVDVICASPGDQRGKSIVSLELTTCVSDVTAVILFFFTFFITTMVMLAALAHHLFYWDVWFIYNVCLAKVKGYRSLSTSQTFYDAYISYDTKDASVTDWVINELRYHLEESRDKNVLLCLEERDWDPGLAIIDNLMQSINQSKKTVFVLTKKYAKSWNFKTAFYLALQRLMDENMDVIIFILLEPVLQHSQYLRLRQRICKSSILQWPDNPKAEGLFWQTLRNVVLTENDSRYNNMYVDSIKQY
Where a name gives a salt, the structure may show the parent alone.
RECORDED_METRIC: IC50 (nM)
Express it in nM; write the number only.

>>> numeric_readout("COc1ccc(-c2[nH]c3ccc(NC4CCC(N5CCN(C6CCN(C)CC6)CC5)CC4)cc3c2C(C)C)cc1OC (stereo not drawn) [Example 61]")
174

# return recorded IC50 for entry `CCc1c(-c2ccnc(OC)c2)[nH]c2ccc(N3CCN(C4CCN(CC(C)C)CC4)CC3)cc12`
14

Please report the measured IC50 for `CCc1c(-c2ccnc3[nH]ccc23)[nH]c2ccc(N3CCN(C4CCN(C(C)C)CC4)CC3)cc12`
635

Write down IC50 measured for item COc1ccc(-c2[nH]c3ccc(N4CCNCC4)cc3c2C(C)C)cc1OC [Example 126, TFA Salt]
14

Report measured IC50; entry is `COc1ccc(-c2[nH]c3ccc(N4CCC(N5CCN(C6CCN(C)CC6)CC5)CC4)cc3c2C(C)C)cc1OC`
62

Specify reported IC50 for the compound shown: `COc1ccc(-c2[nH]c3ccc(N4CCC(N5CCOCC5)CC4)cc3c2C(C)C)cc1OC`
15

Assign IC50 to the following record: `COc1ccc(-c2[nH]c3ccc(N4CCC(NCCN5CCOCC5)CC4)cc3c2C(C)C)cc1OC`
4.8

---

target: human TLR7 (Homo sapiens); construct: host or cells: HEK-Blue cells; experiment: TLR7 inhibition reporter assay (HEK-Blue SEAP reporter); type: cell-based; settings: HEK-Blue cells overexpressing human TLR7; gardiquimod 7.5 μM; 22 hour incubation
IC50 reference
Number in nM, nothing else.

>>> numeric_readout("CCC[C@@H](N)C(=O)Nc1ccc2[nH]c(-c3ccc(OC)c(OC)c3)c(C(C)C)c2c1 [Example 14]")
347
>>> numeric_readout("CCc1c(-c2ccnc(C)c2)[nH]c2ccc(N3CCN(C4CCN(C(C)C)CC4)CC3)cc12 [Example 147]")
4650
>>> numeric_readout("COc1ccc(-c2[nH]c3ccc(NC4CC(C)(C)N(C)C(C)(C)C4)cc3c2C(C)C)cc1OC [Example 103]")
1120

From here, focus on the item given below.
Identify IC50 associated with the compound COc1ccc(-c2[nH]c3ccc(NC(=O)CCCN)cc3c2C(C)C)cc1OC [Example 12]
202
